Field: inhibition. Provide a value for each of the compounds that follow.
- assay.target: 5-hydroxytryptamine receptor 1B (Homo sapiens)
- run.description: Displacement of [3H]5-CT from human 5-HT1BR expressed in HEK cell membranes at 10 uM incubated for 90 mins under dark condition by microbeta scintillation counting method relative to control
- condition.details: HEK293

Please review the following examples before continuing.
[[record]]
given_smiles = "CC(=O)NCCCNC(=O)[C@@]12C[C@@H]1[C@@H](n1cnc3c(NC(C4CC4)C4CC4)nc(Cl)nc31)[C@H](O)[C@@H]2O"
value = "< 50%"

[[record]]
given_smiles = "CN(C)c1nc(Cl)nc2c1ncn2[C@H]1[C@H](O)[C@H](O)[C@]2(CO)C[C@H]12"
value = "< 50%"


Could you tell me inhibition for each of these compounds? They are listed below.
1. CCCOC(=O)[C@@]12C[C@@H]1[C@@H](n1cnc3c(NC(C4CC4)C4CC4)nc(Cl)nc31)[C@H](O)[C@@H]2O
2. Clc1cccc(CNc2nc(Cl)nc3[nH]cnc23)c1

Solution:
< 50%
< 50%

----------
- assay.target: Adenosine receptor A2a (Homo sapiens, UniProt P29274)
- Sequence (P29274 whole entry): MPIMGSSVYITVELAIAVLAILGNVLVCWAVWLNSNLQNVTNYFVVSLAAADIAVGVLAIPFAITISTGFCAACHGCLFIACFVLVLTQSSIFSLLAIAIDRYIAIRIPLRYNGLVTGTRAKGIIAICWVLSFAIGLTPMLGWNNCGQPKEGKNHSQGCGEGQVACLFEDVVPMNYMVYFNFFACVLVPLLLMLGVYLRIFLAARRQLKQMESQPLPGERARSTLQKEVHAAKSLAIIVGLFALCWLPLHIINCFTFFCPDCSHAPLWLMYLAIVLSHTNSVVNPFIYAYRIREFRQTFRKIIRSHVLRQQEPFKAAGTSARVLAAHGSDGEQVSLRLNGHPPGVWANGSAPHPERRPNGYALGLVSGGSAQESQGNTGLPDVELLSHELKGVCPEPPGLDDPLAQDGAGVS
- run.description: Displacement of [3 H]2-[p-(2-carboxyethyl)phenyl-ethylamino]-5'-N-ethylcarboxamidoadenosine from recombinant human adenosine receptor A2A expressed in HEK293 cell membranes at 10 uM after 60 mins by liquid scintillation counting method relative to control
recorded.endpoint: inhibition (%)
Give bare numbers, in %.

Example results:
[[record]]
given_smiles = "COC(=O)[C@@]12C[C@@H]1[C@@H](n1cnc3c(NC(C4CC4)C4CC4)nc(Cl)nc31)[C@H](O)[C@@H]2O"
unit_name = "%"
value = 33

[[record]]
given_smiles = "Clc1cccc(CNc2nc(Cl)nc3[nH]cnc23)c1"
unit_name = "%"
value = 37

[[record]]
given_smiles = "CC(=O)NCCNC(=O)[C@@]12C[C@@H]1[C@@H](n1cnc3c(NC(C4CC4)C4CC4)nc(Cl)nc31)[C@H](O)[C@@H]2O"
unit_name = "%"
value = 20


Batch of 2 compounds: report inhibition for each.
1. CC(=O)NCCCNC(=O)[C@@]12C[C@@H]1[C@@H](n1cnc3c(NC(C4CC4)C4CC4)nc(Cl)nc31)[C@H](O)[C@@H]2O
2. CCOC(=O)[C@@]12C[C@@H]1[C@@H](n1cnc3c(N(C)C)nc(Cl)nc31)[C@H](O)[C@@H]2O

Solution:
1: 26; 2: 13

----------
Answer each item with its documented Ki.
- assay.target: 5-hydroxytryptamine receptor 2C (Homo sapiens)
- Sequence (P28335 whole entry): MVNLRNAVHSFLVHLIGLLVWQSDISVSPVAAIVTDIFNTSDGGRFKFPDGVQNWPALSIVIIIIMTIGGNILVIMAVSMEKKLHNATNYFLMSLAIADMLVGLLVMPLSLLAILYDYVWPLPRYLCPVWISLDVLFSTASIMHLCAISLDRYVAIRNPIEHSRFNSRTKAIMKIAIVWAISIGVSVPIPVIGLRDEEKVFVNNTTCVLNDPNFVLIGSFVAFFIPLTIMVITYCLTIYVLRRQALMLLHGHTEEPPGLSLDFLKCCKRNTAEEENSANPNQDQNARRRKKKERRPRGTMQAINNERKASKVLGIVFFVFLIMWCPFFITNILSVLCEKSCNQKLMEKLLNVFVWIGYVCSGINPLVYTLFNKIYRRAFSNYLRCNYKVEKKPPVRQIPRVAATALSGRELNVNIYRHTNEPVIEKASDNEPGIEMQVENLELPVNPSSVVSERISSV
- run.description: Displacement of [3H]mesulergine from human 5-HT2CR expressed in Flp-In HEK cell membranes incubated for 90 mins under dark condition by microbeta scintillation counting method
- Parameters: species or system HEK293
Answers are plain numbers, in µM.

Some molecules with recorded Ki:
[[record]]
given_smiles = "CNC(=O)[C@@]12C[C@@H]1[C@@H](n1cnc3c(NC(C4CC4)C4CC4)nc(Cl)nc31)[C@H](O)[C@@H]2O"
value = 0.269

[[record]]
given_smiles = "OC[C@@]12C[C@@H]1[C@@H](n1cnc3c(NC(C4CC4)C4CC4)nc(Cl)nc31)[C@H](O)[C@@H]2O"
value = 0.084

[[record]]
given_smiles = "CCOC(=O)[C@@]12C[C@@H]1[C@@H](n1cnc3c(NC(C4CC4)C4CC4)nc(Cl)nc31)[C@H](O)[C@@H]2O"
value = 0.03

[[record]]
given_smiles = "CC(C)[C@H](Nc1nc(Cl)nc2c1ncn2[C@H]1[C@H](O)[C@H](O)[C@]2(CO)C[C@H]12)C1CC1"
value = 0.672

[[record]]
given_smiles = "CC(C)[C@@H](Nc1nc(Cl)nc2c1ncn2[C@H]1[C@H](O)[C@H](O)[C@]2(CO)C[C@H]12)C1CC1"
value = 0.19


Count: 2. Required value per item: Ki.
1. CN(C)c1nc(Cl)nc2c1ncn2[C@H]1[C@H](O)[C@H](O)[C@]2(CO)C[C@H]12
2. OC[C@@]12C[C@@H]1[C@@H](n1cnc3c(N[C@@H](C4CCC4)C4CC4)nc(Cl)nc31)[C@H](O)[C@@H]2O

Solution:
1: 8.1; 2: 0.27

Source listed as ChEMBL document CHEMBL3862033.
